Source: the supplement of paper PMC10567573

B1: MYL5 (parent)
chain: DVAGNLDYKALSYVITHGEEKEE

- Variants of: B1
- test_method_notes: protein stability index of a GFP-peptide fusion (GPS, HEK-293T) (PSI 1-6); higher = more stable;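 further: lentivirally expressed fusions sorted by FACS into six bins by GFP to DsRed ratio, PSI derived from sequencing read proportions per bin multiplied by bin number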
- condition_details: c terminus: native

{"columns": ["mutant_id", "protein stability index"],
 "data": [
  ["V2C", 2.31],
  ["V14C", 2.07],
  ["G4C", 2.45],
  ["Y13V", 1.75],
  ["I15E", 3.02],
  ["D1R", 2.74],
  ["G4V", 1.92],
  ["K9V", 2.67],
  ["T16L", 1.27],
  ["T16F", 3.87],
  ["T16M", 1.18]
]}
